- experimental-protocol: physchem
measured-metric: pKa

compound-structure-string | pKa
Cc1ccc(C)nc1 | 6.47
Cc1ccnc(C)c1 | 6.72
COc1ccncc1 | 6.62
c1ccnnc1 | 2.1

P. Cc1cccc(C)n1
Q. c1cnccn1
Asked: Between the entries labeled P and Q , whose measured pKa is lower? Respond using the label that marks the chosen record.
Given back: Q
(Q: 0.6, P: 6.77)

* * *

- experimental-protocol: physchem
measured-metric: pKa (water)

Completed entries (count: 2):
compound-structure-string | pKa (water)
Cn1cnc2ccccc21 | 5.6
Cc1cccc(C)n1 | 6.77

A. COc1ccccn1
B. COc1cccnc1
Asked: Between the entries labeled A and B , whose measured pKa (water) is lower? Respond using the label that marks the chosen record.
Given back: A
(A: 3.28, B: 4.88)

I. COC(=O)c1cccnc1
II. COc1ccncc1
Asked: Between the entries labeled I and II , whose measured pKa (water) is lower? Respond using the label that marks the chosen record.
Given back: I
(I: 3.13, II: 6.62)

a. c1ccc(-c2ccccn2)nc1
b. Brc1cccnc1
Asked: Between the entries labeled a and b , whose measured pKa (water) is lower? Respond using the label that marks the chosen record.
Given back: b
(b: 2.84, a: 4.42)
